- Test system: Splenocyte
- Assay info: Induction of Th1-specific IFN-gamma secretion in C57BL/6 mouse splenocytes assessed as increase in IFN-gamma level in supernatant at 100 nM treated as liposomal formulation preincubated for 30 mins with anti-CD1d monoclonal antibody followed by compound addition and measured after 72 hrs by ELISA
- Assay type: functional, cell-based
Active and inactive are the calls of the source. The calls are words filed in the database; no cut-off is given here.
Quantity kind: Activity

# Mol, Value
records = [
    ("CCCCCCCCCCCCCC[C@@H](O)[C@@H](O)[C@H](CO[C@H]1O[C@H](CO)[C@H](O)[C@H](O)[C@H]1O)NC(=O)CCCCCCCCCCCCNS(=O)(=O)CCCCCCCCCCC", "inactive"),
    ("CCCCCCCCCCCCCC[C@@H](O)[C@@H](O)[C@H](CO[C@H]1O[C@H](CO)[C@H](O)[C@H](O)[C@H]1O)NC(=O)CCCCCCCCCCCNS(=O)(=O)CCCCCCCCCCCC", "inactive"),
    ("CCCCCCCCCCCCCC[C@@H](O)[C@@H](O)[C@H](CO[C@H]1O[C@H](CO)[C@H](O)[C@H](O)[C@H]1O)NC(=O)CCCCCCCCCNS(=O)(=O)CCCCCCCCCCCCCC", "inactive"),
]
